target: Serotonin 2 (5-HT2) receptor (Rattus norvegicus) (UniProt P30994+P08909+P14842); assay: Affinity towards 5-hydroxytryptamine 2 receptor by measuring its ability to antagonize serotonin-induced contractions in the rat jugular vein.
Sequence (P08909 whole entry, looked up): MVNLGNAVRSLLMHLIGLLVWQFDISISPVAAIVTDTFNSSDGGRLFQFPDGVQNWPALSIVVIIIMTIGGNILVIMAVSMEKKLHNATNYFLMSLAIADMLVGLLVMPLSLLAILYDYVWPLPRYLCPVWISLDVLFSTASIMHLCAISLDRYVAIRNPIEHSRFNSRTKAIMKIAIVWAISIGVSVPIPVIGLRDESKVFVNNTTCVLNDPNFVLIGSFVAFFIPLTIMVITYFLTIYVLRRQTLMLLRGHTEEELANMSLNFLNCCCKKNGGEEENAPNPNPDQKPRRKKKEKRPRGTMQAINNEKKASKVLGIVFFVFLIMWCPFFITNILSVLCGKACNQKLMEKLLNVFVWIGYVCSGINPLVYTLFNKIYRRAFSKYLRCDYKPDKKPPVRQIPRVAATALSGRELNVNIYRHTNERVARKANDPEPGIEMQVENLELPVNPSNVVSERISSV
Sequence (P14842 whole entry, looked up): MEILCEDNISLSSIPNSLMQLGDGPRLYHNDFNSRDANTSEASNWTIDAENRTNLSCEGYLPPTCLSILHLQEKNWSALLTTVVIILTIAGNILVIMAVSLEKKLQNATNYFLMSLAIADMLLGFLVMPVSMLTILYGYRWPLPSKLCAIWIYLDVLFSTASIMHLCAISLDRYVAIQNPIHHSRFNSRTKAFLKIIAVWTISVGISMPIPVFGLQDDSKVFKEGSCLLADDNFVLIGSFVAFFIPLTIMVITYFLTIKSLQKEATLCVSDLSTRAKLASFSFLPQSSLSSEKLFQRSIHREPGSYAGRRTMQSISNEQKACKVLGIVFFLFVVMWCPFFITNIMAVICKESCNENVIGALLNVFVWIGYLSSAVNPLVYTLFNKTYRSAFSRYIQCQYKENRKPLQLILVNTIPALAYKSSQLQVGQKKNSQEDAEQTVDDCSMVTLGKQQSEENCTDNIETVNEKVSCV
Sequence (P30994 whole entry, looked up): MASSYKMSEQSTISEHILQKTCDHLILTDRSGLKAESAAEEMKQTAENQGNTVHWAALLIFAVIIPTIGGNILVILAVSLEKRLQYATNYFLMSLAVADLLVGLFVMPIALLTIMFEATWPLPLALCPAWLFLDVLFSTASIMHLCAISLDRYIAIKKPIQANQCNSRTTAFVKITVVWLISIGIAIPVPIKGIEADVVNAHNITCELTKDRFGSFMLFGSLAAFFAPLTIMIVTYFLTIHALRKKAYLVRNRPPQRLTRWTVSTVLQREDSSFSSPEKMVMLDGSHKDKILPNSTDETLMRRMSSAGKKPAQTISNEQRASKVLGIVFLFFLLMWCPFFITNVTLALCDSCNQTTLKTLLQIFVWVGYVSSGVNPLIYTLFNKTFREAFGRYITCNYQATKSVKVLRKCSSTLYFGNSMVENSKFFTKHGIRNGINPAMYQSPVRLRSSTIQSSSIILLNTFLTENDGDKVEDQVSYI
Catalogue of -Log KB values
Number only, please.

Reference set (2 entries):
{"MOLECULE": "CC(C)Cn1cc2c3c(cccc31)C1CC(C(=O)OCCO)CN(C)C1C2 (stereo not drawn)", "ASSAY READOUT": "-Log KB", "RECORDED RESULT": 7.42}
{"MOLECULE": "COC(=O)C1CC2c3cccc4c3c(cn4C)CC2N(C)C1 (stereo not drawn)", "ASSAY READOUT": "-Log KB", "RECORDED RESULT": 8.23}

# context switch: different molecule, same -Log KB
What value of measured -Log KB is listed for CC(C)Cn1cc2c3c(cccc31)C1CC(C(=O)OC(C)C(C)O)CN(C)C1C2 (stereo not drawn) ? 7.53
